All figures here come from the FLAb antibody collection (doi:10.1101/2023.12.08.570889).

Biological target: TSLP, Q969D9
Assay: Kd (SPR)
measurementLabel: pKd
One number for each entry, as −log10 of the molar value.

// query Would you kindly share the measured pKd for unnamed (protein) chain 1: QMQLVESGGGVVQPGRSLRLSCAASGFTFRTYGMHWVRQAPGKGLEWVAVIWYDGSNKHYADSVKGRFTITRDNSKNTLNLQMNSLRAEDTAVYYCARAPRYYEYWEAFDVWGQGTMVTVSS chain 2: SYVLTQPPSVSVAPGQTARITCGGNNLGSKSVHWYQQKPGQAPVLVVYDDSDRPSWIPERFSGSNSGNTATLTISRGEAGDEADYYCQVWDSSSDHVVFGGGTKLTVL ?
// result 7.53

// query Now the same for unnamed (protein) chain 1: QMQLVESGGGVVQPGRSLRLSCAASGFTFRTYGMHWVRQAPGKGLEWVAVIWYDGSNKHYADSVKGRFTITRDNSKNTLNLQMNSLRAEDTAVYYCNAAIRTTVRTSAQEYWGQGTMVTVSS chain 2: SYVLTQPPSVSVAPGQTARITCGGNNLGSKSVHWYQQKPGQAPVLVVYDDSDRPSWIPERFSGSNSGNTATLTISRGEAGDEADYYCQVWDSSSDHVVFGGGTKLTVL
// result 6.99

We next turn to a different binder, shown below.
// query Recorded pKd of unnamed (protein) chain 1: QMQLVESGGGVVQPGRSLRLSCAASGFTFRTYGMHWVRQAPGKGLEWVAVIWYDGSNKHYADSVKGRFTITRDNSKNTLNLQMNSLRAEDTAVYYCARGPFSRYDYFAMDNWGQGTMVTVSS chain 2: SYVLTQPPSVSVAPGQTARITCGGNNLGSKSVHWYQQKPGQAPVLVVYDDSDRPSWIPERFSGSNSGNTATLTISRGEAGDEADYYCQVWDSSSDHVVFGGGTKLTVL , please.
// result 6.25
